All values here come from patent US8940913B2.

Tested on: Lolium perenne (LOLPE)
EXPERIMENTAL_DETAILS: Post-emergence herbicidal activity, glasshouse pot test
Type: in vivo
EXPERIMENTAL_SETUP: 360 h, rate 125 g/ha, evaluated 15 days later, 100=total damage to plant, 0=no damage to plant
Each entry below lists one item and its recorded pest or weed control at 125 g/ha value.
Write down the numeric answer in % and omit the unit.

| COMPOUND | ENDPOINT_NAME | REPORTED_RESULT |
| --- | --- | --- |
| CC(=O)OC1=C(c2c(C)cc(-c3ccccc3)cc2C)C(=O)[C@@H]2[C@H]1[C@@]1(C)CC[C@]2(C)O1 [Compound P6] | pest or weed control at 125 g/ha | 60 |
| CCc1ccc(-c2ccc(Cl)cc2C)cc1C1=C(O)[C@H]2[C@@H](C1=O)[C@@H]1CC[C@H]2O1 [Compound T13] | pest or weed control at 125 g/ha | 40 |
| CCc1ccc(-c2ccc(Cl)cc2)cc1C1=C(O)[C@H]2[C@@H](C1=O)[C@]1(C)CC[C@@]2(C)O1 [Compound T3] | pest or weed control at 125 g/ha | 80 |
| Cc1cc(-c2ccccc2)cc(C)c1C1=C(OC(=O)C(C)(C)C)[C@H]2[C@@H](C1=O)[C@@H]1CC[C@@]2(C)O1 [Compound P8] | pest or weed control at 125 g/ha | 80 |
| Cc1ccc(-c2cc(C)c(C3C(=O)[C@@H]4[C@H](C3=O)[C@H]3CC[C@@H]4O3)c(C)c2)cc1 (stereo partly drawn) [Compound T27] | pest or weed control at 125 g/ha | 70 |

Next:
Data request: State the recorded pest or weed control at 125 g/ha for this entry: CCc1ccc(-c2ccc(Cl)cc2)cc1C1=C(O)[C@H]2[C@@H](C1=O)[C@@H]1C=C[C@H]2O1 (racemic) [Compound T4]
Data returned: 80

----------
Tested on: Setaria faberi (SETFA)
EXPERIMENTAL_DETAILS: Post-emergence herbicidal activity, glasshouse pot test
Type: in vivo
EXPERIMENTAL_SETUP: 360 h, rate 125 g/ha, evaluated 15 days later, 100=total damage to plant, 0=no damage to plant
ENDPOINT_NAME: pest or weed control at 125 g/ha
Reply with the number, then its unit.

Sample records with pest or weed control at 125 g/ha:
| COMPOUND | pest or weed control at 125 g/ha |
| --- | --- |
| CCc1ccc(-c2ccc(Cl)c(F)c2)cc1C1=C(O)[C@H]2[C@@H](C1=O)[C@]1(C)CC[C@@]2(C)O1 [Compound T33] | 100% |
| CCc1ccc(-c2ccc(Cl)cc2)cc1C1=C(O)[C@H]2[C@@H](C1=O)[C@@H]1CC[C@H]2O1 [Compound T2] | 100% |
| CCc1ccc(-c2ccc(Cl)s2)cc1C1=C(O)[C@H]2[C@@H](C1=O)[C@@H]1CC[C@H]2O1 [Compound T18] | 100% |
| Cc1cc(-c2ccccc2)cc(C)c1C1C(=O)[C@@H]2[C@H](C1=O)[C@H]1CC[C@@H]2O1 (mixture of isomers) [Compound T6] | 60% |
| CCc1cc(-c2ccc(C)cc2)cc(CC)c1C1=C(OC(C)=O)[C@H]2[C@@H](C1=O)[C@@H]1CC[C@H]2O1 [Compound P9] | 90% |

Next:
Data request: State the recorded pest or weed control at 125 g/ha for this entry: Cc1ccc(-c2cc(C)c(C3C(=O)[C@@H]4[C@H](C3=O)[C@H]3CC[C@@H]4O3)c(C)c2)cc1 (stereo partly shown) [Compound T27]
Data returned: 70%
